# System: MS2 coat protein
# TEST METHOD NOTES: apparent KD of MS2 coat protein, switch ON state; designed switch direction (-1 OFF switch, 1 ON switch): -1; higher = weaker reporter binding
# CONDITION NOTES: FMN input: 0 or 200 uM; Eterna round: R93 (includes R88 designs)
Each record here notes measured apparent KD of MS2 coat protein.
Express it in nM; write the number only.

Reference set, count: 5
AUAAAGUGAGGAUAUGCUAAGAAGUAAAUAGACAAAUAAAUGCAGAAGGCACAUGAGGAUCACCCAUGUAAGAA [Ex 4 Tesla 4] : 35.9
AAAAAACAUGAGGAUCACCCAUGUGAGGAUAUACUAAACAAAAAAAACAAAAACAAAUGUAGAAGGCACAAAAA [Amethyst 36] : 19
AGUUGGCGAGGAUAUACAUGAGGAUCACCCAUGUGGAAGAAAAAAGUGAGAAAGAAAAGUAGAAGGCGCUGACA [Mat - Exclusion 3 - Lego mod - D87] : 67.5
AAGAACACAGGAUAUACAUGAGGAUCACCCAUGUAAAAGAAAGAAGGGAAAGAGAAAAGUAGAAGGGUGAAGAA [Ker] : 33.1
AAGAAGUCAGGAUAUCGAAAAGAAAAGAAAAGAAAAGAAAACGAGAAGGGACAUGAGGAUCACCCAUGUAAGAA [Smerdis] : 46.5

stdin: Provide only the value of recorded apparent KD of MS2 coat protein for AACAGGACAGGAUAUACAUGAGGAUCACCCAUGUGAGAAUUAAGUGGCGUACCACAAAGUAGAAGGGUCCUGGA [Mat - Exclusion 3 - JL mod - D40]
stdout: 44.5

stdin: Provide only the value of recorded apparent KD of MS2 coat protein for AAAAAGAUAGGAUAUACGUACAUGUCAAAAGACGUGAAGGGACAUGAGGAUCACCCAUGUAGAAGGGUUAAAAA [JL Wide Open 41]
stdout: 285

stdin: Provide only the value of recorded apparent KD of MS2 coat protein for AAAACACAUGAGGAUCACCCAUGUUAGGAUAUCCACGCUACUAAUCCUAAACAAAGCGGGAGAAGGAACGUGGC [Xerereonan]
stdout: 20.9

stdin: Provide only the value of recorded apparent KD of MS2 coat protein for AACAGUACAGGAUAUACAUGAGGAUCACCCAUGUAAAAUAAAUAAAAAUAAAAGGGAAGUAGAAGGGUACUGGA [Moding Maslow revisited (73) 17]
stdout: 31.6

stdin: Provide only the value of recorded apparent KD of MS2 coat protein for AAAAACCGAGGAUAUACAUGAGGAUCACCCAUGUGAAAAAAAAAAAAGAGGAAAAGAUGUAGAAGGCGGAAAAA [65%, Moding Exclusion3-cac2, 17]
stdout: 33.9

stdin: Provide only the value of recorded apparent KD of MS2 coat protein for UAUAGACAUGAGGAUCACCCAUGUGAGGAUAUCGGUAACUACAAAACAUCACAUACAACGAGAAGGCACAGAAA [JR_Exc001_Sub013]
stdout: 41.5

====

# Tested on: K4 kissing-loop RNA reporter
# TEST METHOD NOTES: apparent KD of K4 kissing-loop reporter; higher = weaker reporter binding
# CONDITION NOTES: Eterna round: R107; input ligand: arginine 13.2 mM
REPORTED ENDPOINT: apparent KD of K4 kissing-loop reporter (nM)
Express it in nM; write the number only.

Reference set, count: 3
GUAUAAAUAUAAGGAUAUGCAGGGAAAGUAAGAAUGGGUUAGUUGAACUUUAGUGAUGUUGAGGAAGCAGAAGGUGUAUAUGUGU [FMN B same state] : 272
AAGUUUUAUAAACUCAUGGUUUCGACAGAUACCAGCUUCGAGAGGAGCCCUUGGCAGCUGCAUGAGUGAUGUUCAUGUACGAAGA [KL-XTheoA8] : 362
CUCACGCUCACAGAUACCAGUGGUGAUCCGGAUUGUAGUGAUGUUAAUUCCGCCAUCAUACACCCUUGGCAGCUGGCGUCACCUU [theeternabot_sameState_KL_Theo_B_31] : 417

stdin: Provide only the value of recorded apparent KD of K4 kissing-loop reporter for AGGGAUGUUAAAGGAUAUAGAAAGUGAUGUUAGAAAGUGAGUGAUGUUGAUGUAAGUGAUGAUAUGUUAGAAGGUUAACAAAACG [abc]
stdout: 111

stdin: Provide only the value of recorded apparent KD of K4 kissing-loop reporter for AAACAUCACUGGGAGUGAUGUUCUCAGUGACGAGGACCGGUACGGCCGCCACUCGCGAGAGAUAUAGUCAAGUAAUGACUGCAUU [Excl Tryptophan A V9]
stdout: 309

stdin: Provide only the value of recorded apparent KD of K4 kissing-loop reporter for AGCAUUUUCAGAAGGAGCGUGAAUUAUUCUUAAGUAUAUUAUACGAGUGAUGUUCGUAUUUCACAGGUAGGUCGCUGAUAUAGCA [JR_SSArginiB_Sub003]
stdout: 89.2

stdin: Provide only the value of recorded apparent KD of K4 kissing-loop reporter for CGUGCCCAGCCGGAUACCAGUGACCCGCUGGGAACCGCGGGCCCAGAGUGAUGUUCGGGACACCCUUGGCAGCCGCCUGGGCGGU [#2 Same State - Theophylline B Attempt #11 (HarryS)]
stdout: 343

====

# Tested on: K4 kissing-loop RNA reporter
# TEST METHOD NOTES: apparent KD of K4 kissing-loop reporter; higher = weaker reporter binding
# CONDITION NOTES: Eterna round: R107; input ligand: arginine 13.2 mM
Each record here notes measured apparent KD of K4 kissing-loop reporter.
Express it in µM; write the number only.

GAGAUAGAGGCGGCCGCCACUAGUGAUGUUAGUGAUGUUAGAUAGAGAAUAGAACAGAGAUAGGAUAGGACCGGGCCAGAUAGAG [Tryptophan B Exclusion; Euphoria Solution] : 0.0608
GGAUUUGAAAGUGAGUGAUGUUCAUGUUGUGAGGAUAUGUAGAGAUAUAGAAGGCACGUUUGUAUUUUUUUUGUGUGAGAUUAAA [Last Minute #1] : 0.0649
ACGAAAUGCGACUCCUAGUUACACCGGGAAGGAGCGCGGAUAACCGCAGGUAGGUCGCCCGGAAGCCGGACCAGUGAUGUUGGUC [Exclusion Arginine A Gf 27] : 0.273
AGUGGUGUUGUGUUAUGUUUGGGAAGUGAUCGAGGACCGGUACGGCCGCCACUCGAGUGAUGAGUGAGUGAUGUUUGUUUAGGGA [whbob_SS_Tryp_A_m10] : 0.636

stdin: Provide only the value of recorded apparent KD of K4 kissing-loop reporter for CAUAGGAAACUAUGUUUCUCUCUUACUGAAGGAGCGCGUGAAAACGCAGGUAGGUCGCAGAAUUUGAGAGUGAUGUUCUCAUUAA [Ex Arginine A K4 14]
stdout: 0.211

stdin: Provide only the value of recorded apparent KD of K4 kissing-loop reporter for GGCACGGUGGCGCGACUGCCGUGCGCUUGGGAGGAUAUGUUUCGUGACAGAAGGCCCAGUGAUGUUGGGUCUGUUCAAAAGGACU [Gegearer]
stdout: 0.125

====

Each record here notes measured apparent KD of MS2 coat protein.
# Test system: MS2 coat protein
# TEST METHOD NOTES: apparent KD of MS2 coat protein; designed switch direction (-1 OFF switch, 1 ON switch): -1; higher = weaker reporter binding
# CONDITION NOTES: Eterna round: R95; input ligand: FMN 200 uM
Express it in nM; write the number only.

Reference set, count: 3
GUGUAGUCAGGAUAUACAUAGGAAGAGAAGAGAAGAGAAGCACAUGAGGAUCACCCAUGUAGAAGGGACAGUGU [Excluse me!! 4 - Jieux - Exclusion 2] (puzzle: Exclusion 2) : 85.7
AGAUGUAGAAACCGAUCCUACAUGAGGAUCACCCAUGUAGCAAGACGUGCACGCGAAGCUCGUCAGACUACCAGAAG [salish99_TOv1_r3_082] (puzzle: Sensor v3, turn-off variant 1) : 270
AGAAAUGCCCAUGGCCGCAAGCUUUUUGCUUGUCUUACCACAUGAGGAUCACCCAUGUGACAUGGGCUCCUGAUAAU [Bivequ] (puzzle: Sensor v3, turn-off variant 2) : 13.7

Consider the record given below.
stdin: Provide only the value of recorded apparent KD of MS2 coat protein for CAGGUCCGAGGAUAUAUUAUGUGAAACAUGAGGAUCACCCAUGUUAUAUGAUGGAUGUAAAUAGAAGGCGGACUUG [Mat - Exclusion 5 - JL mod - D64] (puzzle: Exclusion 5)
stdout: 23.9

====

# System: K4 kissing-loop RNA reporter;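 note: bound reporter read as fluorescence of individual clusters on recovered sequencing chips by microscopy, with normalized cluster intensities fitted with a binding model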
# TEST METHOD NOTES: apparent KD of K4 kissing-loop reporter; higher = weaker reporter binding
# CONDITION NOTES: Eterna round: R107; input ligand: theophylline 20 uM
REPORTED ENDPOINT: apparent KD of K4 kissing-loop reporter (nM)
Express it in nM; write the number only.

Reference set, count: 5
CAACGAGUGAUGGUCGUUGACGGCCAUCCCGAGGAUAUGGGAUUAUCCAGAAGGCGGGAUCGCCGGGAGUGAUGUUCCCUGAUCA [Same State FMN A GF 14] : 300
UGUACCGAGUCAGGAUAUGGCCGGAAACGGAAUAACCAGUGAUGUUGGAAUAAAUGGCGAAAGCCUCCAGAAGGGACUUGGUACU [FmnBS 18 #SwitchBubble #StaticStem #DoubleMagnetSystem] : 212
UCCUGCAAUCUGCCACGAAAGUGGAUGGAUACCAGAGUCGAAAGACUCCCUUGGCAGCCAGUGAUGUUGGAAGCAGGUAAAUAAA : 460
AAUUUGGGUUCGGCCGCCACUCCAGUGAUGUUGGAUGGCGAAAUAAAGGCUAGACCAGGUUGCCGGAGGACCGGGAAUCCUGUAC [Qumabi] : 139
UGAUAGGACAGAAGGAGCGGAAUGCUAGUCAAAGACUAGCAACGUUAAACAGGAGUGAUGUUCCAGGUAGGUCGCUGUCCUAUCU [ArgBX 22 #SwitchBubble #StaticStem] : 140

stdin: Provide only the value of recorded apparent KD of K4 kissing-loop reporter for "AAAAUAAUCCAGUGAUGUUGGUAUACAGAUACCAGCGACGAAAGUCGCCCUUGGCAGCUGUGGACGUACAAAAUAAGUACGUCCU"
stdout: 592

stdin: Provide only the value of recorded apparent KD of K4 kissing-loop reporter for GCGCGUCAUGUCAGCGGUGACUAUGUCGAUACCAGCGCCGCAAGGCGCCCUUGGCAGCGACGCGCUGGAGUGAUGUUCCGACGGC [#2 Exclusion - Theophylline A Attempt #9 (HarryS)]
stdout: 159
